Test system: SF-268 CNS
protocol details: NCI-60 one-dose screen, 48 h (100 = growth as untreated, 0 = no growth, -100 = all killed)
test parameters: 10 µM unless noted
This is part of a sample that, as a whole, favours compounds with a hit. Of some 83,000 tested, about 20% had one in any assay.
quantity name: growth (%)
Field: numeric (%). Do not append units.

COc1cc2c(c(OC)c1OC)C(=O)CC(c1cccc(NC(=O)c3ccc(Br)cc3)c1)O2 (centres undefined)
57.6
Brc1ccc2[nH]cc(-c3nonc3-c3c[nH]c4ccccc34)c2c1
44.9
COCCn1cc(-c2nc(-c3cc4cccnc4n3CCOC)cs2)c2cc(OC)ccc21
74.2

Next compound, please.
Prompt: Entry under review: COc1ccc2[nH]cc(C(c3cc(F)cc(F)c3)c3c[nH]c4ccc(OC)cc34)c2c1 . Reported growth?
Response: 80

====

System: MCF7 breast
protocol details: NCI-60 one-dose screen, 48 h
test parameters: 10 µM unless noted
About 83,000 compounds went through this panel and 20% of them were active in at least one assay; those are over-represented in the sample as a whole. Activity calls are given as the source filed them. How the source made its calls: active means growth percent below 10; inactive means the rest.
# output must be one of Yes for active, No for inactive

Prompt: Answer briefly: the call reported for CN(C)Cc1ccc(NC(=O)c2cncc(C#Cc3cnc(N)c4ncccc34)c2)cc1F in this assay.
Response: Yes

Prompt: What did the test return for O=C1COCCN1c1ccc(Nc2nc(Cl)nc(OCc3cn(Cc4ccccc4)nn3)n2)cc1 ?
Response: No

Prompt: Which result was noted for this compound in the test: O=[N+]([O-])c1ccc(S(=O)(=O)N2CCN(C3=NS(=O)(=O)c4ccccc4N3c3ccccc3)CC2)cc1
Response: No

Prompt: How did this test come out for CCN(CC)CCSc1nc(-c2ccccc2)c(C#N)c(=O)[nH]1 ?
Response: No

Prompt: Which outcome was entered for the compound COc1cc(-c2nc3cc(Cl)c(Cl)cc3[nH]2)ccc1OCC(=O)N=Nc1c(O)[nH]c2ccc([N+](=O)[O-])cc12 in this test?
Response: No

====

Test system: NCI-H23 lung
protocol details: NCI-60 one-dose screen, 48 h (100 = growth as untreated, 0 = no growth, -100 = all killed)
test parameters: 10 µM unless noted
Protocol: Growth inhibition of the NCI-H23 human Non-Small Cell Lung tumor cell line is measured as a screen for anti-cancer activity. Cells are grown in 96 well plates and exposed to the test compound for 48 hours. Compounds are tested at a single concentration, which is 10^-5 M for most compounds. The reported endpoint is percent growth (GI% or GIPRCNT), where numbers from 0 - 100% represent growth inhibition, and numbers from -100% - 0 represent cell death. […]
This is part of a sample that, as a whole, favours compounds with a hit. Of some 83,000 tested, about 20% had one in any assay.
quantity name: growth (%)
// return numeric value only (unit: %, not printed)

// solved cases for growth follow
Oc1c(Cl)cc(Cl)c2ccc(Cn3cc(-c4cc(C(F)(F)F)cc(C(F)(F)F)c4)nn3)nc12
77.3
CCc1ccc(C(=O)/C=C/C23c4ccccc4C(c4ccccc42)C2C(=O)NC(=O)C23)cc1 (stereo unspecified)
15.9
Cc1ccc(C(C(N)=O)C(C(N)=O)c2ccccc2)cc1 (stereo unspecified)
111
CCN(CC)CCOc1ccc(-c2c(-c3ccccc3)c(=O)oc3ccccc23)cc1
94.8
CS(=O)(=O)C1=CN(CCO)C(=O)N2CCCN=C12
95.7

Moving on to the next compound.
Prompt: Which growth value belongs to Cc1cnc(C(=O)NNc2nc3sc4c(c3c(=O)n2C)C(C)CCC4)cn1 (stereo unspecified) ?
Response: 5.46

====

System: SNB-75 CNS
protocol details: NCI-60 one-dose screen, 48 h (100 = growth as untreated, 0 = no growth, -100 = all killed)
test parameters: 10 µM unless noted
Method: Growth inhibition of the SNB-75 human tumor cell line is measured as a screen for anti-cancer activity. Cells are grown in 96 well plates and exposed to the test compound for 48 hours. Compounds are tested at a single concentration, which is 10^-5 M for most compounds. The reported endpoint is percent growth (GI% or GIPRCNT), where numbers from 0 - 100% represent growth inhibition, and numbers from -100% - 0 represent cell death. For example, a value of 40 represents 60% growth inhibition. […]
Compounds without any hit were thinned out: in the full panel of roughly 83,000, 20% have a hit.
Hi, to clarify the labels: 1 covers growth from 70% upward, 0 covers anything below 70%.

Before answering, review these 3 worked examples.
O=C(O)CNC1=C(Cl)C(=O)c2ccccc2C1=O
1
Cc1nnc(-n2c(O)cc(=O)n(-c3ccccc3)c2=S)nc1/C=C/c1ccc(N(C)C)cc1
0
CC(=O)OCc1nc(C#N)c(N(C)C)o1
1

Prompt: Decide: is the reported value of growth for CN(C)CCNC(=O)c1cccc(-c2cnc3ccc(-c4ccc5c(c4)OCO5)nn23)c1 equal to or greater than 70%?
Response: 1

Prompt: Confirm if growth reported for the compound Cc1ccc(CNc2ccc(Cl)cc2NCc2ccc(C)c(O)c2)cc1O is 70% or above.
Response: 0

Prompt: Textbook exercise: given the entry COc1ccc2nc3ccc(OC)cc3c(SCCCN)c2c1 , state whether its growth is greater than or equal to 70%.
Response: 1

Prompt: Is growth at least 70%? Consider CN(C)Cc1ccc(NC(=O)c2cncc(C#Cc3cnc(N)c4ncccc34)c2)cc1F
Response: 1

Prompt: Hello, I need to know if CCS/C(Nc1ccccc1)=C(\C#N)C(=O)N/N=C/c1ccc(Cl)cc1Cl has measured growth not below 70%. Thanks!
Response: 0

====

Recorded growth for the following compounds
System: SF-295 CNS
protocol details: NCI-60 one-dose screen, 48 h (100 = growth as untreated, 0 = no growth, -100 = all killed)
test parameters: 10 µM unless noted
This is part of a sample that, as a whole, favours compounds with a hit. Of some 83,000 tested, about 20% had one in any assay.
Number only, in %; omit the unit.

O=C(O)c1[nH]c(=O)[nH]c(=O)c1[N+](=O)[O-]
104
C=C1CC[C@@H]2[C@](C)(COC(C)=O)[C@H](OC(C)=O)CC[C@@]2(C)[C@@H]1CC(Sc1ccccc1)C1=CCOC1=O (stereo partly drawn)
65.9
O=C(OCc1ccc2c(Cl)cc(Cl)c(O)c2n1)n1cncn1
20

Here is another compound to look at.
Prompt: What reported growth corresponds to COc1ccc(-c2csc(NC(=O)CSc3nc(-c4ccccc4)cc(=O)[nH]3)n2)cc1 on SF-295 CNS?
Response: 53.3

====

System: MALME-3M melanoma
protocol details: NCI-60 one-dose screen, 48 h (100 = growth as untreated, 0 = no growth, -100 = all killed)
test parameters: 10 µM unless noted
Compounds without any hit were thinned out: in the full panel of roughly 83,000, 20% have a hit.
A collection of compounds and their measured growth
API: value field is a number in %; no unit string.

Worked examples, 4 compounds total:
CS(=O)(=O)Nc1cc(-c2ccc3ncnc(Nc4c(Cl)ccc5c4OCO5)c3c2)cnc1Cl
-29
COc1ccc2[nH]cc(-c3nc(-c4c[nH]c5ccncc45)cs3)c2c1
-77.5
O=C(/C=C/c1ccc(Cl)cc1)c1cccc(Nc2nc(Nc3ccccc3)nc(Nc3ccccc3)n2)c1
95.6
Cc1ccc(-c2nn(-c3ccccc3)cc2C=C2C(=O)ON=C2C(C)C)cc1
85.2

Consider now this further compound.
Prompt: # get_value(readout= growth, system= MALME-3M melanoma) for C=CC(=O)NCc1ccc(Nc2nccc(-c3ccc(N4CCCC4)c(C#N)c3)n2)cc1
Response: 44.9

====

System: UACC-62 melanoma
protocol details: NCI-60 one-dose screen, 48 h
test parameters: 10 µM unless noted
About 83,000 compounds went through this panel and 20% of them were active in at least one assay; those are over-represented in the sample as a whole. Active and inactive are the calls of the source. The calls were made as follows: active = growth percent below 10; inactive = the rest.
Hi there, use one of these labels in your reply, thanks! active, inactive

Consider the worked cases shown below.
CCc1ccc(Oc2cn[nH]c2-c2ccc(OCCc3ccc(F)cc3)cc2O)cc1
inactive
CC1=Nc2cnc(Nc3ccc(OCCN4CCCC4)cc3)nc2Nc2ccccc21
inactive
O=C1/C(=C/c2ccc(-c3ccc(Br)cc3)o2)SC(=S)N1CCc1ccc(O)cc1
inactive

Prompt: Called result for CCOC(=O)C1=C(NC)OCC1=O
Response: inactive

Prompt: # fetch the recorded call for COc1ccc(-c2nc3c(c(-c4ccccc4)nn3-c3ccccc3)c(-c3ccc(N4CCOCC4)cc3)c2C#N)cc1 here
Response: inactive

Prompt: Which result was noted for this molecule in the test: N#Cc1cccc(NC(=O)c2oc3ccccc3c2-c2cnn(-c3ccccc3)c2)c1
Response: inactive

Prompt: Test call, this molecule: Cc1ccccc1/C=C1\CN(C(=O)OC(C)(C)C)C/C(=C\c2ccccc2C)C1=O
Response: inactive

Prompt: Hey, what did the test say about c1cc2[nH]ncc2cc1-c1nc2ccc3[nH]ncc3c2c2c1CCCC2 ?
Response: active

Prompt: Test call, this molecule: CN1C(=O)/C(=C/c2cn(-c3ccccc3)nc2-c2ccccc2)SC1=S
Response: inactive

Prompt: I would be grateful if you could indicate the recorded call for COC1=CC(c2ccc[nH]2)=N/C1=C\c1[nH]c(C)c(C(=O)OCc2ccccc2)c1C .
Response: active
